# assayed.system: T1, Monomeric 8-histidine tagged human EGFRvIII extracellular domain (human, UniProt P00533 298-645)
# T1 construct: Analyte in all SPR assays; not shown: 8-histidine tag
# measurement.protocol: SPR, captured by anti-human Fc, 37 C
Reported koff values follow for various binders
Response body: numeric value in s⁻¹, unit text excluded.

Solved cases (3 shown):
>  <binder>
h62G7-H14/L1-DV (antibody, V domains shown, Humanized, human IgG1 recombinant antibody) VH: QVQLVQSGAEVKKPGASVKVSCKASGYTFTDYTLHWVRQAPGQGLEWMGGIWPITGGTTYNQKFKGRVTMTRDTSTSTVYMELSSLRSEDTAVYYCARGEAEGSWGQGTLVTVSS VL: DVVMTQSPLSLPVTLGQPASISCKSSQSLLYSNDKTYTNWFQQRPGQSPRRLIYEVSKLDVGVPDRFSGSGSGTDFTLKISRVEAEDVGVYYCGQDTHFPLTFGGGTKVEIK

>  <units.of.measure>
s⁻¹

>  <koff>
0.1

$$$$
>  <binder>
h62G7-H14/L6 (antibody, V domains shown, Human IgG1) VH: QVQLVQSGAEVKKPGASVKVSCKASGYTFTDYTLHWVRQAPGQGLEWMGGIWPITGGTTYNQKFKGRVTMTRDTSTSTVYMELSSLRSEDTAVYYCARGEAEGSWGQGTLVTVSS VL: DVVMTQSPLSLPVTLGQPASISCKSSQSLLYSNGKTYLNWFQQRPGQSPRRLIYQVSKLDSGVPDRFSGSGSGTDFTLKISRVEAEDVGVYYCGQDTHFPLTFGGGTKVEIK

>  <units.of.measure>
s⁻¹

>  <koff>
0.068

$$$$
>  <binder>
h62G7-EQ/L1-DV (antibody, V domains shown, Human IgG1) VH: QVQLVQSGAEVKKPGASVKVSCKASGYTFTDYTLHWVRQAPGQGLEWMGGIWPITGGTTYNQKFKGRVTMTRDTSTSTVYMELSSLRSEDTAVYYCARGEAQGSWGQGTLVTVSS VL: DVVMTQSPLSLPVTLGQPASISCKSSQSLLYSNDKTYTNWFQQRPGQSPRRLIYEVSKLDVGVPDRFSGSGSGTDFTLKISRVEAEDVGVYYCGQDTHFPLTFGGGTKVEIK

>  <units.of.measure>
s⁻¹

>  <koff>
0.069

$$$$

In the following, a different binder is considered.
## Input Quickly give me recorded koff for h62G7-EQ/L6 (antibody, V domains shown, Humanized, human IgG1 recombinant antibody; also called h62G7-L6/EQ) VH: QVQLVQSGAEVKKPGASVKVSCKASGYTFTDYTLHWVRQAPGQGLEWMGGIWPITGGTTYNQKFKGRVTMTRDTSTSTVYMELSSLRSEDTAVYYCARGEAQGSWGQGTLVTVSS VL: DVVMTQSPLSLPVTLGQPASISCKSSQSLLYSNGKTYLNWFQQRPGQSPRRLIYQVSKLDSGVPDRFSGSGSGTDFTLKISRVEAEDVGVYYCGQDTHFPLTFGGGTKVEIK
## Output 0.074
